# TEST_SYSTEM: Peroxisome proliferator-activated receptor (Homo sapiens) (UniProt P37231+Q07869+Q03181)
# ASSAY_NAME: Activation of PPAR in human HepG2 cells at 10 ug/ml after 24 hrs by luciferase reporter gene assay relative to rosiglitazone
# Type: cell-based
MEASURE_NAME: Activity (%)
Provide the reading as a plain figure in %.

                                   molecule  measure_name  reading
0  COc1ccc2cc(CCC(=O)CC(Nc3ccc(S(N)(=O)=O)cc3)c3ccc([N+](=O)[O-])cc3)ccc2c1 (stereo not given)      Activity     46.8
1  COc1ccc2cc(CCC(=O)CC(Nc3ccc(S(=O)(=O)Nc4cc(C)on4)cc3)c3ccc(Cl)c(Cl)c3)ccc2c1 (stereo not given)      Activity     22.4
2  COc1ccc2cc(CCC(=O)CC(Nc3ccc(S(=O)(=O)Nc4cc(C)on4)cc3)c3cccc(Cl)c3)ccc2c1 (stereo not given)      Activity     19.6
3  COc1ccc2cc(CCC(=O)CC(Nc3cc(C)on3)c3cccc(F)c3)ccc2c1 (stereo not given)      Activity     30.1
4  COc1ccc2cc(CCC(=O)CC(Nc3ccc(S(=O)(=O)Nc4cc(C)on4)cc3)c3ccccc3)ccc2c1 (stereo not given)      Activity     17.8
5  COc1ccc2cc(CCC(=O)CC(Nc3ccc(S(N)(=O)=O)cc3)c3ccc4c(c3)OCO4)ccc2c1 (stereo not given)      Activity     9.87

Query: Give the reported Activity for this molecule. COc1ccc2cc(CCC(=O)CC(Nc3ccc(S(=O)(=O)Nc4cc(C)on4)cc3)c3ccc4c(c3)OCO4)ccc2c1 (stereo not given)
Response: 43

Query: Note down Activity recorded for COc1ccc2cc(CCC(=O)CC(Nc3cc(C)on3)c3ccc(Cl)cc3Cl)ccc2c1 (stereo not given)
Response: 11.5

Query: Please report Activity for the following molecule: COc1ccc2cc(CCC(=O)CC(Nc3ccc(S(N)(=O)=O)cc3)c3cccc(Cl)c3)ccc2c1 (stereo not given)
Response: 58.7

Query: Tell us which Activity value is on record for COc1ccc2cc(CCC(=O)CC(Nc3cc(C)on3)c3cccc([N+](=O)[O-])c3)ccc2c1 (stereo not given)
Response: 9.11

---

Known Activity of a selection of compounds
# TEST_SYSTEM: Peroxisome proliferator-activated receptor (Homo sapiens) (UniProt P37231+Q07869+Q03181)
# ASSAY_NAME: Activation of PPAR in human HepG2 cells at 10 ug/ml after 24 hrs by luciferase reporter gene assay relative to rosiglitazone
# Assay type: cell-based
State just the number; it will be interpreted in %.

Solved cases (4 shown):
                                   compound  unit_text  reading
0  COc1ccc2cc(CCC(=O)CC(Nc3ccc(S(N)(=O)=O)cc3)c3cccc(C)c3)ccc2c1 (stereo not given)          %     57.3
1  CCCCOc1ccc(C(CC(=O)CCc2ccc3cc(OC)ccc3c2)Nc2ccc(S(=O)(=O)Nc3cc(C)on3)cc2)cc1 (stereo not given)          %     83.3
2  COc1ccc2cc(CCC(=O)CC(Nc3cc(C)on3)c3ccc(Cl)c(Cl)c3)ccc2c1 (stereo not given)          %     5.37
3  COc1ccc2cc(CCC(=O)CC(Nc3ccc(S(N)(=O)=O)cc3)c3cccc([N+](=O)[O-])c3)ccc2c1 (stereo not given)          %     14.8

Could you now look at the following compound, please?
Query: Indicate its recorded Activity; the compound in question is COc1cccc(C(CC(=O)CCc2ccc3cc(OC)ccc3c2)Nc2cc(C)on2)c1 (stereo not given)
Response: 41.6
